assay: Plasma levels of Compound 1 over 72 h, suspension versus tablet, fasted or fed, in healthy volunteers; format: in vivo; conditions: human, oral, 100 mg, 100 mg tablet, fed, 8 h post-dose, read-out: Plasma level, Mean
RECORDED METRIC: concentration at 8 h

compound="NC(=O)N1CCC[C@@H](N(C(=O)NCc2ccc(OC(F)(F)F)cc2F)C2CC2)C1 [Cpd 1]" recorded_value="1740 ng/mL"

###

experiment: Plasma levels of Compound 1 over 72 h, suspension versus tablet, fasted or fed, in healthy volunteers; type: in vivo; conditions: human, oral, 100 mg, 100 mg suspension, fasted, 8 h post-dose, read-out: Plasma level, Mean
RECORDED METRIC: concentration at 8 h (ng/mL)

smiles_data=NC(=O)N1CCC[C@@H](N(C(=O)NCc2ccc(OC(F)(F)F)cc2F)C2CC2)C1 recorded_metric="concentration at 8 h" recorded_value=1580

###

assay: Plasma levels of Compound 1 over 72 h, suspension versus tablet, fasted or fed, in healthy volunteers; assay type: in vivo; details: human, oral, 100 mg, 100 mg suspension, fasted, 1.5 h post-dose, read-out: Plasma level, Mean
RECORDED METRIC: concentration at 1.5 h (ng/mL)

compound="NC(=O)N1CCC[C@@H](N(C(=O)NCc2ccc(OC(F)(F)F)cc2F)C2CC2)C1 [Cpd 1]" recorded_metric="concentration at 1.5 h" unit_descriptor=ng/mL recorded_value=2440

src = patent US20260083714A1
